Target: UniProt P43405
Experiment: In vitro inhibition of Syk protein tyrosine kinase
Note to self: IC50 under 30 µM means met, ties and anything higher get not met.

Reference set (5 entries):
CCCCCCCCCCCCNC(=O)c1cc(NCc2cc(O)ccc2O)ccc1O
not met
O=C(NCCCc1ccccc1)c1ccc(NCc2cc(O)ccc2O)cc1
not met
O=C(NCCN1CCOCC1)c1cc(NCc2cc(O)ccc2O)ccc1O
met
COc1ccc(CCNC(=O)c2cc(NCc3cc(O)ccc3O)ccc2O)cc1
not met
O=C(NCCCc1ccccc1)c1cc(NCc2cc(O)ccc2O)ccc1O
met

[ask] Field: below-cutoff. Rule: recorded IC50 strictly less than 30 µM. Subject: "O=C(NCCc1ccccc1)c1ccc(NCc2cc(O)ccc2O)cc1"
[reply] met

[ask] Next entry: "O=C(NCCc1ccccc1)c1cc(NCc2cc(O)ccc2O)ccc1O"
[reply] met

[ask] Next entry: "O=C(NCCc1ccccc1)c1cccc(NCc2cc(O)ccc2O)c1"
[reply] not met

[ask] Next entry: O=C(NC1CCc2ccccc2C1)c1cc(NCc2cc(O)ccc2O)ccc1O (centres undefined)
[reply] met

----------
A collection of compounds and their measured IC50
Target: Epidermal growth factor receptor (Mus musculus, UniProt Q01279)
Sequence (Q01279 whole entry): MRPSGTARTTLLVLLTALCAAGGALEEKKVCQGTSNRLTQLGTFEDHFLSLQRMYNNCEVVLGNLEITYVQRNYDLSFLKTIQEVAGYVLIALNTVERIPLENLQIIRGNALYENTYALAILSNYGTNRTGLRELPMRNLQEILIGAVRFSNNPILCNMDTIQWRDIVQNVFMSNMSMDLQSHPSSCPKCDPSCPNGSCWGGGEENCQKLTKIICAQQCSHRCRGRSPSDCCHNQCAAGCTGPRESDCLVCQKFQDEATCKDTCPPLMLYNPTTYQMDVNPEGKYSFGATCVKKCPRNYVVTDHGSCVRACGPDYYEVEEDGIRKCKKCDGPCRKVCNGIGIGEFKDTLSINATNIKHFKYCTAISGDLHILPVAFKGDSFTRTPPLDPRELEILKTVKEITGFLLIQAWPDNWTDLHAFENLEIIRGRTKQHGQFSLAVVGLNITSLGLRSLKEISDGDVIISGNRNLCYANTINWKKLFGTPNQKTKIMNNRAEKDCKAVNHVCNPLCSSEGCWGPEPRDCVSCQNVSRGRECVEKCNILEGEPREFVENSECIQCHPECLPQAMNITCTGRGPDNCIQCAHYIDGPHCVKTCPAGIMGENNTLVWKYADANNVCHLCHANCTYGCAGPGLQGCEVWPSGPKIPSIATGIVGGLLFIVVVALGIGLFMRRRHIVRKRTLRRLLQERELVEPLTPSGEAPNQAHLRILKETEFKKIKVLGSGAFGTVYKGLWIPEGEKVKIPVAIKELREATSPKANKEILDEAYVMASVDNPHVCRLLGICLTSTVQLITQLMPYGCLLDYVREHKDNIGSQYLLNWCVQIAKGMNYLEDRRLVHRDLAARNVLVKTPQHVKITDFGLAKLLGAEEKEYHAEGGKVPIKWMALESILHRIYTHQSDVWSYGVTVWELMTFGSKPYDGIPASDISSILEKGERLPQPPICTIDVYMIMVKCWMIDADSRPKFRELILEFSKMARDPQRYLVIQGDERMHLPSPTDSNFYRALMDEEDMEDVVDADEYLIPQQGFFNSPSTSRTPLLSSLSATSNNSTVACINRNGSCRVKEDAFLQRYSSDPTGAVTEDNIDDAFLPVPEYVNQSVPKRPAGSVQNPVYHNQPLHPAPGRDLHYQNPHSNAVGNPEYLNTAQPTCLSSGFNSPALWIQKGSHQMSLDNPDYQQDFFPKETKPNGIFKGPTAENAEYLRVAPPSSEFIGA
Test: Inhibition of epidermal growth factor receptor phosphorylation in BaF3 mouse lymphoid cells.
Report as a plain number; the unit µM is understood.

Previously resolved entries follow.
O=C(NC1CCc2ccccc2C1)c1cc(NCc2cc(O)ccc2O)ccc1O (stereo unspecified)
4
O=C(NCCc1ccc(Br)cc1)c1cc(NCc2cc(O)ccc2O)ccc1O
35
CCCCCCNC(=O)c1cc(NCc2cc(O)ccc2O)ccc1O
14

Please find the next compound below.
[ask] # get_value(readout= IC50, system= Epidermal growth factor receptor (Mus musculus, UniProt Q01279)) for "O=C(NCCCc1ccccc1)c1ccc(NCc2cc(O)ccc2O)cc1"
[reply] 33

----------
Tested on: Cancer cell lines
Assay: Mean graph mid point (MGM) for growth inhibition of all human cancer cell lines successfully tested
Type: functional
recorded_endpoint: log10 of MGM (log10 of the value in µM)
Values are log10 of MGM in µM.

Previously resolved entries follow.
O=C(NCCCc1ccccc1)c1cc(NCc2cc(O)ccc2O)ccc1O
1.12
O=C(NCc1ccccc1)c1cc(NCc2cc(O)ccc2O)ccc1O
1.19
O=C(NCc1ccccc1)c1ccc(NCc2cc(O)ccc2O)cc1
0.94

Please find the next compound below.
[ask] State the recorded log10 of MGM for this entry: "O=C(NCCc1ccccc1)c1cccc(NCc2cc(O)ccc2O)c1"
[reply] 1.08

----------
Target: Epidermal growth factor receptor (Mus musculus)
Experiment: Inhibition of epidermal growth factor receptor phosphorylation in BaF3 mouse lymphoid cells.
Format: cell-based
recorded_endpoint: IC50 (µM)
Report as a plain number; the unit µM is understood.

O=C(NCCc1ccccn1)c1cc(NCc2cc(O)ccc2O)ccc1O
15
O=C(NCCc1ccc(O)cc1)c1cc(NCc2cc(O)ccc2O)ccc1O
300
O=C(NCCCc1ccccc1)c1cc(NCc2cc(O)ccc2O)ccc1O
1
O=C(NCCc1ccccc1)c1cccc(NCc2cc(O)ccc2O)c1
500
O=C(NCCc1ccc(Cl)cc1)c1cc(NCc2cc(O)ccc2O)ccc1O
46
CCCCCCCCCCCCNC(=O)c1cc(NCc2cc(O)ccc2O)ccc1O
35
O=C(NCc1ccccc1)c1cc(NCc2cc(O)ccc2O)ccc1O
8
O=C(NCCc1ccc(F)cc1)c1cc(NCc2cc(O)ccc2O)ccc1O
4

Please find the next compound below.
[ask] State the recorded IC50 for this entry: "O=C(NCCc1ccccc1)c1cc(NCc2cc(O)ccc2O)ccc1O"
[reply] 10

----------
Tubulin beta chain (Bos taurus, UniProt Q6B856) measurements of pIC50, listed per entry.
Sequence (Q6B856 whole entry): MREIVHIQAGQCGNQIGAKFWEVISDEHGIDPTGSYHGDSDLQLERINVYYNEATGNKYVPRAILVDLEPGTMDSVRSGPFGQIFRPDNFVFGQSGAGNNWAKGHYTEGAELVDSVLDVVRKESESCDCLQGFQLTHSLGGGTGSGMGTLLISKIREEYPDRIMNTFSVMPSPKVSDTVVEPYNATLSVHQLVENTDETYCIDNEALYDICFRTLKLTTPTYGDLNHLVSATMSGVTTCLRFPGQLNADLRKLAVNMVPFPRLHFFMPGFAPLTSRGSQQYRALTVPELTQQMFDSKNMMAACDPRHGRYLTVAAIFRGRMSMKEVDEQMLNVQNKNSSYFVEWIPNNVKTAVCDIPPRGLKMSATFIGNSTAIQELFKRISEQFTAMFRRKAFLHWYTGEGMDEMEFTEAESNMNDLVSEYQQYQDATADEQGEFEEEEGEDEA
Scale for pIC50: -log10 of concentration given in mol/L; no unit attached.

Previously resolved entries follow.
O=C(NCCc1ccc(O)cc1)c1cc(NCc2cc(O)ccc2O)ccc1O
5.35
O=C(NCCc1ccccc1)c1cccc(NCc2cc(O)ccc2O)c1
5.16

Please find the next compound below.
[ask] State the recorded pIC50 for this entry: "O=C(NCCc1ccccc1)c1cc(NCc2cc(O)ccc2O)ccc1O"
[reply] 5.44

----------
Tubulin beta chain (Bos taurus, UniProt Q6B856) measurements of pIC50, listed per entry.
Scale for pIC50: -log10 of concentration given in mol/L; no unit attached.

Previously resolved entries follow.
O=C(NCCc1ccc(Cl)cc1)c1cc(NCc2cc(O)ccc2O)ccc1O
5.49
CCCCCCNC(=O)c1cc(NCc2cc(O)ccc2O)ccc1O
5.44

[ask] State the recorded pIC50 for this entry: "O=C(NCCc1ccccc1)c1ccc(NCc2cc(O)ccc2O)cc1"
[reply] 5.31

[ask] Next entry: "O=C(NCCN1CCOCC1)c1cc(NCc2cc(O)ccc2O)ccc1O"
[reply] 5.68

[ask] Next entry: "O=C(NCc1ccccc1)c1cc(NCc2cc(O)ccc2O)ccc1O"
[reply] 5.49

----------
Tested on: OVCAR-3
Experiment: In vitro cytotoxicity against human ovarian OVCAR-3 cells.
Assay type: functional
Please use the following GI50 ranges when assigning a class: Low: < 4 µM; Mid: ≥ 4 µM and < 8 µM; High: ≥ 8 µM

Reference set (3 entries):
O=C(NCCc1ccc(Cl)cc1)c1cc(NCc2cc(O)ccc2O)ccc1O
Mid
COc1ccc(CCNC(=O)c2cc(NCc3cc(O)ccc3O)ccc2O)cc1
Mid
O=C(NCCc1ccc(Br)cc1)c1cc(NCc2cc(O)ccc2O)ccc1O
Mid

[ask] Each compound maps to one class by GI50. Which class for "O=C(NCCc1ccccc1)c1cccc(NCc2cc(O)ccc2O)c1" ?
[reply] Low

[ask] Next entry: "O=C(NCCCc1ccccc1)c1cc(NCc2cc(O)ccc2O)ccc1O"
[reply] Mid

[ask] Next entry: "O=C(NCCc1ccccc1)c1cc(NCc2cc(O)ccc2O)ccc1O"
[reply] Mid

[ask] Next entry: "O=C(NCCCc1ccccc1)c1ccc(NCc2cc(O)ccc2O)cc1"
[reply] Low

----------
Biological target: Tyrosine-protein kinase SYK (Homo sapiens)
Assay: In vitro inhibition of Syk protein tyrosine kinase
recorded_endpoint: IC50

Previously resolved entries follow.
O=C(NCc1ccccc1)c1cc(NCc2cc(O)ccc2O)ccc1O
25 µM
O=C(NCCc1ccc(F)cc1)c1cc(NCc2cc(O)ccc2O)ccc1O
5 µM
O=C(NCCc1ccc(Br)cc1)c1cc(NCc2cc(O)ccc2O)ccc1O
45 µM

[ask] State the recorded IC50 for this entry: "O=C(NCCc1ccc(Cl)cc1)c1cc(NCc2cc(O)ccc2O)ccc1O"
[reply] 25 µM

[ask] Next entry: "O=C(NCCc1ccc(O)cc1)c1cc(NCc2cc(O)ccc2O)ccc1O"
[reply] 5 µM

[ask] Next entry: "O=C(NCc1ccccc1)c1ccc(NCc2cc(O)ccc2O)cc1"
[reply] 18 µM

----------
A collection of compounds and their measured GI50
Tested on: MDA-MB-435
Assay: In vitro cytotoxicity against human breast MDA-MB-435 cells.
Assay type: functional
Report as a plain number; the unit µM is understood.

Previously resolved entries follow.
O=C(NCCc1ccc(Br)cc1)c1cc(NCc2cc(O)ccc2O)ccc1O
10
O=C(NCCc1ccc(O)cc1)c1cc(NCc2cc(O)ccc2O)ccc1O
23
CCCCCCCCCCCCNC(=O)c1cc(NCc2cc(O)ccc2O)ccc1O
3.2
O=C(NCCc1ccccc1)c1cc(NCc2cc(O)ccc2O)ccc1O
19

[ask] State the recorded GI50 for this entry: "O=C(NCc1ccccc1)c1ccc(NCc2cc(O)ccc2O)cc1"
[reply] 12

[ask] Next entry: "O=C(NCCCc1ccccc1)c1ccc(NCc2cc(O)ccc2O)cc1"
[reply] 5.8

----------
A collection of molecules and their measured MGM
System: Cancer cell lines
Assay: Mean graph mid point (MGM) for growth inhibition of all human cancer cell lines successfully tested
Format: functional
Report as a plain number; the unit µM is understood.

Previously resolved entries follow.
O=C(NC1CCc2ccccc2C1)c1cc(NCc2cc(O)ccc2O)ccc1O (stereo not drawn)
11.2
O=C(NCCc1ccccc1)c1cc(NCc2cc(O)ccc2O)ccc1O
14.8
O=C(NCCc1ccc(O)cc1)c1cc(NCc2cc(O)ccc2O)ccc1O
20.4
O=C(NCCN1CCOCC1)c1cc(NCc2cc(O)ccc2O)ccc1O
19.5
CCCCCCCCCCCCNC(=O)c1cc(NCc2cc(O)ccc2O)ccc1O
2.7

[ask] State the recorded MGM for this entry: "O=C(NCCc1ccc(F)cc1)c1cc(NCc2cc(O)ccc2O)ccc1O"
[reply] 0.35

[ask] Next entry: "O=C(NCCc1ccc(Br)cc1)c1cc(NCc2cc(O)ccc2O)ccc1O"
[reply] 7.6

[ask] Next entry: "O=C(NCCCc1ccccc1)c1ccc(NCc2cc(O)ccc2O)cc1"
[reply] 5.3

[ask] Next entry: "O=C(NCCc1ccccn1)c1cc(NCc2cc(O)ccc2O)ccc1O"
[reply] 16

[ask] Next entry: "O=C(NCCc1ccc(Cl)cc1)c1cc(NCc2cc(O)ccc2O)ccc1O"
[reply] 10

[ask] Next entry: "COc1ccc(CCNC(=O)c2cc(NCc3cc(O)ccc3O)ccc2O)cc1"
[reply] 15.4

[ask] Next entry: "O=C(NCCc1ccccc1)c1ccc(NCc2cc(O)ccc2O)cc1"
[reply] 6.4

[ask] Next entry: "CCCCCCNC(=O)c1cc(NCc2cc(O)ccc2O)ccc1O"
[reply] 8.7

Source listed as ChEMBL document CHEMBL1134836.
